- TARGET_SYSTEM: Cyclin-dependent kinase/G2/mitotic-specific cyclin- 1 (Homo sapiens, UniProt P06493)
- Sequence (P06493 whole entry): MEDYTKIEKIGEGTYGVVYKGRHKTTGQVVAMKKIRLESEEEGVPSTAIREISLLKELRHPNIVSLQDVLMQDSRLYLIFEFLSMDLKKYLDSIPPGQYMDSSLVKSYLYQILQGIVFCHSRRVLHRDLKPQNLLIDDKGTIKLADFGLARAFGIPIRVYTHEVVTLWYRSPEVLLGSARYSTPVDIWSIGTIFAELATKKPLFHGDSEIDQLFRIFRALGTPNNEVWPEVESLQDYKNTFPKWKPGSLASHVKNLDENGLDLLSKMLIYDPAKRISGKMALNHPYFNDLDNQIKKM
- Sequence (P14635 whole entry, further chain): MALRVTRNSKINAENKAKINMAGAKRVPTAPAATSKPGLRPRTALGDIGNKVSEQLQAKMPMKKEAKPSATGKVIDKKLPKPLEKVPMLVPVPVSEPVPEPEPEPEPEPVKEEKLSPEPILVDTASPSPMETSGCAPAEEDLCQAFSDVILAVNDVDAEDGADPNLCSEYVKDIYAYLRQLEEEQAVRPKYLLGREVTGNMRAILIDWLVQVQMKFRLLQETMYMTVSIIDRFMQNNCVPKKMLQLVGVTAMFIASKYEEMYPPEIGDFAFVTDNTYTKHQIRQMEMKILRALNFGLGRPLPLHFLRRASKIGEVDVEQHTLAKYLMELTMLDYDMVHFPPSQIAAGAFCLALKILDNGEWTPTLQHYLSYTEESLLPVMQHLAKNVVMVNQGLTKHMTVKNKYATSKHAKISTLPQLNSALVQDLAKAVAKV
- MEASUREMENT_NOTES: CDK Kinase Inhibition Assay
- SETUP_CONDITIONS: 25 °C
TEST_READOUT: IC50 (µM)
Quick note: give the figure in µM, leave out the unit.

Hello, I am looking for reported IC50 with Cyclin-dependent kinase/G2/mitotic-specific cyclin- 1 (Homo sapiens, UniProt P06493) for N#C/C=C(\c1ccc2nc(N)c(C(=O)c3c(F)cccc3F)n2c1)c1c(F)cccc1F . Could you help? 0.053

---

- TARGET_SYSTEM: Cyclin-dependent kinase 4/G1/S-specific cyclin-D1 (Homo sapiens, UniProt P11802)
- Sequence (P11802 whole entry): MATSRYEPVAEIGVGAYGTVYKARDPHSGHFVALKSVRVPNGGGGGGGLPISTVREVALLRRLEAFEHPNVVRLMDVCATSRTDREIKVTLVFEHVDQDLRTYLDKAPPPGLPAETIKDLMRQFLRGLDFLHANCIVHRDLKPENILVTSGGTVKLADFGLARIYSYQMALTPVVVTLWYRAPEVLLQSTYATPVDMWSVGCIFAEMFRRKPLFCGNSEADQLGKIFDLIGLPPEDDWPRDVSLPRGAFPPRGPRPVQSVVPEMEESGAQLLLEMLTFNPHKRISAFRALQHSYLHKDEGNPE
- Sequence (P24385 whole entry, further chain): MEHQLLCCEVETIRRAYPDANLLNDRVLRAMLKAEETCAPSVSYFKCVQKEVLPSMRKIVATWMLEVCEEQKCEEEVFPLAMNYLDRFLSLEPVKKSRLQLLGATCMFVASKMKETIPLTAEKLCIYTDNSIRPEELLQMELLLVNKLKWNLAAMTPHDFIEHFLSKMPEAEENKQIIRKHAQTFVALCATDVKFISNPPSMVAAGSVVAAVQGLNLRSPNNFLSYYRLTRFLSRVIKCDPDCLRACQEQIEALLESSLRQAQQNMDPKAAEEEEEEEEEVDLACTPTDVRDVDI
- MEASUREMENT_NOTES: CDK Kinase Inhibition Assay
- SETUP_CONDITIONS: 25 °C
TEST_READOUT: pIC50
The value called pIC50 is obtained by taking minus log10 of the concentration in mol/L.

What does the record list as pIC50 for N#C/C=C(\c1ccc2nc(N)c(C(=O)c3c(F)cccc3F)n2c1)c1c(F)cccc1F ? 5.81
